Where do these numbers come from? They come from ChEMBL document CHEMBL1201862.

Molecular target: UniProtKB P0AE70
Sequence (P0AE70 whole entry): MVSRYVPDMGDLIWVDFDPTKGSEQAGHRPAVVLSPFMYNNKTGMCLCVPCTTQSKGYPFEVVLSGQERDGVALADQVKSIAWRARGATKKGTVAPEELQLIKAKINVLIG
Assay: substrate-only fluorescence increase artefacts – biochemical, single-stranded RNase substrate, counter-screen for MazEF activator project, dose response (AID 588502)
Assay type: functional
The source made the active and inactive calls.
Outcome codes: 1.0 (active), 0.0 (inactive)

[
  {
    "compound": "O=C(C1=C(O)C(=O)N(c2nccs2)C1c1ccccc1)c1cc2ccccc2o1 (configuration not stated)",
    "assigned_class": 0.0
  },
  {
    "compound": "CCOc1ccc(N2C(=O)NC(=O)/C(=C\\c3c[nH]c4ccccc34)C2=O)cc1",
    "assigned_class": 1.0
  },
  {
    "compound": "COC(=O)Cn1c2ccc(OC)cc2c2nc3ccccc3nc21",
    "assigned_class": 0.0
  },
  {
    "compound": "Cc1ccc2c(Cl)c(C(=O)N/N=C/c3cccn3C)sc2c1",
    "assigned_class": 0.0
  },
  {
    "compound": "CCCNC(=O)Cn1c(=O)/c(=C/c2ccc(-c3cccc([N+](=O)[O-])c3)o2)s/c1=C\\C(=O)C(C)(C)C",
    "assigned_class": 0.0
  },
  {
    "compound": "COc1ccc(/C=c2\\s/c(=C/C(=O)c3ccc(C)cc3)[nH]c2=O)c(OC)c1",
    "assigned_class": 0.0
  },
  {
    "compound": "CCCCN1CC(=O)N2[C@H]3c4cc(C)ccc4OC[C@@H]3[C@H](c3ccccc3)[C@]2(C)C1=O",
    "assigned_class": 0.0
  }
]

====

Recorded below: AC50, system Cytochrome P450 2C9 (Homo sapiens).

[
  {
    "molecule": "C=CCSc1nc(C)cc(/C=C\\c2ccccc2)c1C#N",
    "AC50": "inconclusive"
  },
  {
    "molecule": "CCC(CC)C(=O)NCc1ccc2c(c1)cc(C)n2C",
    "AC50": "inconclusive"
  },
  {
    "molecule": "Cc1csc(NC(=O)CCNS(=O)(=O)c2ccc3c(c2)c(=O)n(C)c(=O)n3C)n1",
    "AC50": "inconclusive"
  },
  {
    "molecule": "Cn1c(SCc2nnc(-c3ccc(F)cc3)o2)nnc1C1COc2ccccc2O1 (configuration not stated)",
    "AC50": "inconclusive"
  },
  {
    "molecule": "COc1ccccc1CN1CC[C@@]2(CCCN(C(=O)c3c(C)noc3C)C2)C1",
    "AC50": "inconclusive"
  },
  {
    "molecule": "O=C(Nc1cccc(F)c1)N1CC2(CCN(C(=O)c3cc(C(F)(F)F)cc(C(F)(F)F)c3)CC2)C1",
    "AC50": "inconclusive"
  },
  {
    "molecule": "COc1cc(/C=C/C(=O)N2CCN(CC(O)COc3ccccc3)CC2)cc(OC)c1OC.Cl (configuration not stated)",
    "AC50": "inconclusive"
  }
]

====

The following compounds are shown together with reported EC50 values.
Biological target: UniProt:Q9QUQ5
Sequence (Q9QUQ5 whole entry): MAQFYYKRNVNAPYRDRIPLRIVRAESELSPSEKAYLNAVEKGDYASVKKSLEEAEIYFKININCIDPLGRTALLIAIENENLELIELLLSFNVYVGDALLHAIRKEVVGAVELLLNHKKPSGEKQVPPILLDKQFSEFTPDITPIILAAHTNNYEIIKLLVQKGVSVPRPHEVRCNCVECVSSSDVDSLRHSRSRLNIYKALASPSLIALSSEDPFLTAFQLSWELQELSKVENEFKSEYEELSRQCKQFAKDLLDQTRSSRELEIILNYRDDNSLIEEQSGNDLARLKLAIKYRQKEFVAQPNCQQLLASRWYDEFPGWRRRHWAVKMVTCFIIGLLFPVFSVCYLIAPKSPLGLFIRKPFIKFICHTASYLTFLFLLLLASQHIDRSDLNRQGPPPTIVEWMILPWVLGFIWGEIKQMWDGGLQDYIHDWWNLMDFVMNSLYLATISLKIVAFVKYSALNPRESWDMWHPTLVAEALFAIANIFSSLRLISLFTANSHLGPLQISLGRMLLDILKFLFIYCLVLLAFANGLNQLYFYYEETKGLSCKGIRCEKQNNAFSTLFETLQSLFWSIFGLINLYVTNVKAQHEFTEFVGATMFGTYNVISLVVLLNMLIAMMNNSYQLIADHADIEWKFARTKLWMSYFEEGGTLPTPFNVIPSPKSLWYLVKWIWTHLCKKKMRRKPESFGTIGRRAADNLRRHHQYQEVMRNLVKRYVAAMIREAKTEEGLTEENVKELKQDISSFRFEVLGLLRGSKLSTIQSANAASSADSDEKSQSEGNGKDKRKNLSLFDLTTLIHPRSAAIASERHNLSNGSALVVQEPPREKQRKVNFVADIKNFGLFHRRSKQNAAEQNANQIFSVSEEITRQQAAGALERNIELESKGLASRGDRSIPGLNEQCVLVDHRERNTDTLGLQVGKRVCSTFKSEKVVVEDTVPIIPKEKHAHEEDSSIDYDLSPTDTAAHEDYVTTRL
Test: calcium entry via TRPC4 opening agents – cell-based, HEK293 TRPC4/mu-opioid, Fluo-4 calcium, dose response (AID 434937)
Format: functional
Activity calls are given as the source filed them.

[
  {
    "compound": "CCOC(=O)C1(CCc2ccccc2)CCN(Cc2ccc(NC(C)=O)cc2)CC1",
    "EC50": "26.7 nM (active)"
  },
  {
    "compound": "C=CCn1c(CCNC(=O)C(C)(C)C)nc2ccccc21",
    "EC50": "3760 nM (active)"
  },
  {
    "compound": "CN(C)CCN(C(=O)C1CCCCC1)c1nc2cc3c(cc2s1)OCO3",
    "EC50": "6680 nM (active)"
  },
  {
    "compound": "Cc1ccc(NC(=O)NCC(c2ccccc2)N(C)C)cc1 (configuration not stated)",
    "EC50": "4 nM (active)"
  },
  {
    "compound": "Cc1cccc(C(=O)NNC(=S)NC(=O)c2ccccc2)c1",
    "EC50": "2110 nM (active)"
  },
  {
    "compound": "Cc1ccc(S(=O)(=O)Nc2cccc(C(=O)NCC(c3ccco3)N3CCCC3)c2)cc1F (configuration not stated)",
    "EC50": "1500 nM (active)"
  },
  {
    "compound": "O=C(NCCc1ccccn1)c1ccc(COc2ccccc2)o1",
    "EC50": "4730 nM (active)"
  }
]

====

Biological target: Fatty acid synthase (Homo sapiens, UniProt P49327)
Sequence (P49327 whole entry): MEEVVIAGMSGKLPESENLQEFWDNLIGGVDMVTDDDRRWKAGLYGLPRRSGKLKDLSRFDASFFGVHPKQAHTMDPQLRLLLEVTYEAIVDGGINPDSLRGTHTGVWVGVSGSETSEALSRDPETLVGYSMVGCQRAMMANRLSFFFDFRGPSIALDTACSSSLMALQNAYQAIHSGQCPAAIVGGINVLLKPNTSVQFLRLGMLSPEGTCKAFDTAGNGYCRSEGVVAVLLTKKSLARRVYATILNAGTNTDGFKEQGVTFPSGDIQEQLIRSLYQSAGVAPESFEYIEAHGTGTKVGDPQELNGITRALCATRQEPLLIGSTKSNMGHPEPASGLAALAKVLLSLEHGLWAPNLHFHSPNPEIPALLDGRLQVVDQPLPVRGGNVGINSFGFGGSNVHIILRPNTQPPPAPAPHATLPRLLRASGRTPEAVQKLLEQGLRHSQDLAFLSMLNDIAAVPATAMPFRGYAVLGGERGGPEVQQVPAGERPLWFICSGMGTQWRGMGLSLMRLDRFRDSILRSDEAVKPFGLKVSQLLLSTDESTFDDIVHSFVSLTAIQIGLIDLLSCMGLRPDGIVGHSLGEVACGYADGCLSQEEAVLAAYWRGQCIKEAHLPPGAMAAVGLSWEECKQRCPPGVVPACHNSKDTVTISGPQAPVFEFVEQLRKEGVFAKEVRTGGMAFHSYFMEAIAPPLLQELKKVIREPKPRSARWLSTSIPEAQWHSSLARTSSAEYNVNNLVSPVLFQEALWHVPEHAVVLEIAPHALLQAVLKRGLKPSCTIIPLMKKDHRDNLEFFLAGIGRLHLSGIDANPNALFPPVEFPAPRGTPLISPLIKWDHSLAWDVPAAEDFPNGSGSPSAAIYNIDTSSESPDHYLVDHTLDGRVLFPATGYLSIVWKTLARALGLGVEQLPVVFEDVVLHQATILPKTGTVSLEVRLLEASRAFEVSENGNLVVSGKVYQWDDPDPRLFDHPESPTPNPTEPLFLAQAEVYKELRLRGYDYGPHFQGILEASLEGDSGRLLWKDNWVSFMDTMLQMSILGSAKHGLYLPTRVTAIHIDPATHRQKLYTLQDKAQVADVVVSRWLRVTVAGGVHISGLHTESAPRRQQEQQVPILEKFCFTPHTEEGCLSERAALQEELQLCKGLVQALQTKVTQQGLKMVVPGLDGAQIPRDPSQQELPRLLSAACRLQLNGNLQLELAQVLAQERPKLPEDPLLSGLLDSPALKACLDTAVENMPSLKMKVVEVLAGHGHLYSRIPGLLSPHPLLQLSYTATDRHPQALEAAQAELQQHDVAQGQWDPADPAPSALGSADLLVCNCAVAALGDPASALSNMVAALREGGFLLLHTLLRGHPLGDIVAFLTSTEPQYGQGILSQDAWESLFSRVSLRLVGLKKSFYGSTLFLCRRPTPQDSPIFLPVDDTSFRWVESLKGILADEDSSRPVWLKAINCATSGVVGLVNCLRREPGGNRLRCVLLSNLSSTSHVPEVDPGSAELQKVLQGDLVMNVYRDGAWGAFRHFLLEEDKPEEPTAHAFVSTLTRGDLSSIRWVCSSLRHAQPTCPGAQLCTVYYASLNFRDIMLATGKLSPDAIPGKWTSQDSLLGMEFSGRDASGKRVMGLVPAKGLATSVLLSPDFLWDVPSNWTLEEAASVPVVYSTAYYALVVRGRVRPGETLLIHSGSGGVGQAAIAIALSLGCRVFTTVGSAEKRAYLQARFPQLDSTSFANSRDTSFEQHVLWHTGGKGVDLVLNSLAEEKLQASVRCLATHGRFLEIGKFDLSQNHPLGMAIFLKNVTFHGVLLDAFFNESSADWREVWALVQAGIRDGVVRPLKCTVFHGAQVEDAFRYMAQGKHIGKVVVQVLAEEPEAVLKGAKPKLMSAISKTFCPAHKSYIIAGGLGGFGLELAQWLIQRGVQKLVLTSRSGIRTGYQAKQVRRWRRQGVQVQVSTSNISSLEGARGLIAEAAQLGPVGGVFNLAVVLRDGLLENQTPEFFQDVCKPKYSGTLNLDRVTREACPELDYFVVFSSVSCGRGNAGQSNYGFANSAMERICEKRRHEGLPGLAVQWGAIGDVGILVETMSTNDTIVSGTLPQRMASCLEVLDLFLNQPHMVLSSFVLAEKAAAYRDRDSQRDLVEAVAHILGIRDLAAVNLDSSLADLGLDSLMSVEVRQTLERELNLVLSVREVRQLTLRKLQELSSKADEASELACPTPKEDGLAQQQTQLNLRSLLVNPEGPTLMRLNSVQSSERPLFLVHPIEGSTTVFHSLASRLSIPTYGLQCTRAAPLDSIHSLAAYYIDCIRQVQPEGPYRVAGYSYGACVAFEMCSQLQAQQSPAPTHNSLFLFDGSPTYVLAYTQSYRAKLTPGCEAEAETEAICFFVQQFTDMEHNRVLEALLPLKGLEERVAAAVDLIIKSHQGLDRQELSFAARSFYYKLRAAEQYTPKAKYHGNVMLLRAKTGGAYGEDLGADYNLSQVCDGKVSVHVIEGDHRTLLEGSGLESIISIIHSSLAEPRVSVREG
Experiment: inhibition of human FAS-TE enzyme activity – biochemical, endpoint fluorescence intensity, uHTS hits, dose response (AID 624327);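 note: fluorescence from hydrolysis of an O-methyl fluorescein acyl ester substrate by the enzyme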
Assay type: functional
The source made the active and inactive calls.
Outcome codes: true (1) (active), false (0) (inactive)

[
  {
    "compound": "CCCC(=O)N(C1CC(C)C(C#N)(C#N)C1(C#N)C#N)N(C)C (centres undefined)",
    "assigned_class": "true (1)"
  },
  {
    "compound": "Cc1ccc(NC(=O)c2[nH]cnc2C(=O)N[C@@H](CCCCNC(=O)OC(C)(C)C)C(=O)OC(C)(C)C)cc1",
    "assigned_class": "true (1)"
  },
  {
    "compound": "COc1ccc(C(CC(=O)Nc2cc([N+](=O)[O-])ccc2OC)c2ccccc2)cc1 (centres undefined)",
    "assigned_class": "true (1)"
  },
  {
    "compound": "CCOc1ccc(N(CC(=O)N/N=C/c2ccccn2)S(=O)(=O)c2ccc(Cl)cc2)cc1",
    "assigned_class": "true (1)"
  },
  {
    "compound": "O=C(NCc1ccc2c(c1)OCO2)c1cc([N+](=O)[O-])ccc1N1CCOCC1",
    "assigned_class": "true (1)"
  },
  {
    "compound": "O=C1[C@H]2[C@@H](c3ccc(F)cc3)N3C(=O)N(c4ccccc4)C(=O)[C@@]3(Cc3ccccc3)[C@H]2C(=O)N1C1CCCCC1",
    "assigned_class": "true (1)"
  },
  {
    "compound": "Cc1ccc(C(=O)NCCSC(C)(C)C)cc1[N+](=O)[O-]",
    "assigned_class": "true (1)"
  },
  {
    "compound": "O=C(/C=C/c1cccc([N+](=O)[O-])c1)NCCSCc1ccco1",
    "assigned_class": "true (1)"
  },
  {
    "compound": "Cc1cccc(NC(=O)CSc2nc3c(oc4ccccc43)c(=O)n2-c2ccccc2)c1",
    "assigned_class": "false (0)"
  }
]

====

Biological target: Sentrin-specific protease 8 (Homo sapiens, UniProt Q96LD8);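 note: luminescence read-out of SENP8 inhibition, dose-response confirmation following an ultra-high-throughput screen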
Sequence (Q96LD8 whole entry): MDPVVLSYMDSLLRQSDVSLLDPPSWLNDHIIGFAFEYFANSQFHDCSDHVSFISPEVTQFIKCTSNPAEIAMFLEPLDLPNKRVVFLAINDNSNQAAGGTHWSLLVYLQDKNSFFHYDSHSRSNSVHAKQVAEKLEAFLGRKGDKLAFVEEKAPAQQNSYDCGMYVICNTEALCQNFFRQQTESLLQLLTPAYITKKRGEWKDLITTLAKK
Assay type: functional
Activity calls are given as the source filed them.
Outcome codes: 1.0 = active, 0.0 = inactive

[
  {
    "compound": "CCOC(=O)C1=C(COC(=O)c2ccc([N+](=O)[O-])s2)NC(=O)NC1C (configuration not stated)",
    "assigned_class": 1.0
  },
  {
    "compound": "Nc1c2c(nc3sc4c(c13)CCCCC4)CCCC2",
    "assigned_class": 1.0
  },
  {
    "compound": "Oc1cccc(/C=N/Nc2cc(N3CCCC3)nc(N3CCCC3)n2)c1",
    "assigned_class": 1.0
  },
  {
    "compound": "COc1cc2c(C#N)c(N3CCCC3)nc(N)c2c(N)n1",
    "assigned_class": 1.0
  },
  {
    "compound": "Cc1cccc(C(=O)Nc2scc(-c3ccc(Br)cc3)c2C(=O)O)c1",
    "assigned_class": 1.0
  },
  {
    "compound": "Cc1cccc(-c2noc(C3CCCCC3)n2)c1",
    "assigned_class": 0.0
  },
  {
    "compound": "Cc1csc2nc(CSc3nc4ccccc4o3)c(Br)n12",
    "assigned_class": 0.0
  }
]

====

Biological target: UniProt:P31422
Sequence (P31422 whole entry): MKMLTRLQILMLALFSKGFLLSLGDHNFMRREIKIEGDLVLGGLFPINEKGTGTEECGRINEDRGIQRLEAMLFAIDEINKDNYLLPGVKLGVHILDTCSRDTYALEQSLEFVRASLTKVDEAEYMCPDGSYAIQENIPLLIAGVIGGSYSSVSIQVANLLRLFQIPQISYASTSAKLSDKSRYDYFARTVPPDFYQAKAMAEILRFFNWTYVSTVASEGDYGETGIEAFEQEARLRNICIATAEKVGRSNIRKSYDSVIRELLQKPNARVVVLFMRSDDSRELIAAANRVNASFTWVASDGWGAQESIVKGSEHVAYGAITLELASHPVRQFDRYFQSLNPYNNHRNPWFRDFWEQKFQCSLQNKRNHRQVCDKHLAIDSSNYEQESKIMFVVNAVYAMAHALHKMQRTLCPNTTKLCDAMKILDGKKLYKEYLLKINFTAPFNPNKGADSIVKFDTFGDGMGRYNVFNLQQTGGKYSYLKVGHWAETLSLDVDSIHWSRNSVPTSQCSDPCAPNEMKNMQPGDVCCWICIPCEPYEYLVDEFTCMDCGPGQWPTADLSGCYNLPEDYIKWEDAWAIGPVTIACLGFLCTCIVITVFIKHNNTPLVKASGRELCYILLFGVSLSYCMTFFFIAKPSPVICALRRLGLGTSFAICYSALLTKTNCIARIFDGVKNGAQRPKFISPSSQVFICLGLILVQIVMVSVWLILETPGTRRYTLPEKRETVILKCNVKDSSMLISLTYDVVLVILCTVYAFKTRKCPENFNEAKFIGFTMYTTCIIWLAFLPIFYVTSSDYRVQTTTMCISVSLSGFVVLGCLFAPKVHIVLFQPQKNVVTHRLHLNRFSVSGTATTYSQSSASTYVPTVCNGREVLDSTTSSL
Assay: inhibitors of rat mGlu3 Galpha15 signaling – TREx293 cells, calcium flux, mGlu3 NAM project, dose response (AID 651840)
test_readout: IC50 (nM)

[
  {
    "molecule": "COc1ccc(C#Cc2ccc(C(=O)N3CCC[C@@H](O)C3)cc2)cc1",
    "test_readout": "IC50",
    "observed_value": 597
  }
]

====

Target: Induced myeloid leukemia cell differentiation protein Mcl-1 (Homo sapiens)
Sequence (Q07820 whole entry): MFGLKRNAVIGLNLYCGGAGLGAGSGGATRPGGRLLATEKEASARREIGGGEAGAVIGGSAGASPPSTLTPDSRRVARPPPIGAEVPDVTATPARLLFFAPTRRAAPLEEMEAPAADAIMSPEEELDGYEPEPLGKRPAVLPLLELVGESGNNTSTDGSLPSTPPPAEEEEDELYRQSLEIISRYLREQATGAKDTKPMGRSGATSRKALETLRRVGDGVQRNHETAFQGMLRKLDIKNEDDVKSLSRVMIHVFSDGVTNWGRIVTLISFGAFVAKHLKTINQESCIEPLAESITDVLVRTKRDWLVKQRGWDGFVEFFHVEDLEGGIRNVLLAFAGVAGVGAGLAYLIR
Assay type: functional
Calls of active or inactive are those of the source.
The following compounds are shown together with reported IC50 values.

[
  {
    "compound": "COc1cc2c(cc1O)C[C@H]1NCCc3cc4c(c-2c31)OCO4",
    "test_target": "Induced myeloid leukemia cell differentiation protein Mcl-1 (Homo sapiens)",
    "IC50": "5.61 µM (active)"
  },
  {
    "compound": "CN(C)c1ccc(NC(=O)c2cccc(C(=O)Nc3ccc(N(C)C)cc3)n2)cc1",
    "test_target": "Induced myeloid leukemia cell differentiation protein Mcl-1 (Homo sapiens)",
    "IC50": "3.33 µM (active)"
  },
  {
    "compound": "Cc1ccc(N=Nc2ccc(O)c(/C=N\\NC(=O)c3ccc(N)cc3)c2)cc1C",
    "test_target": "Induced myeloid leukemia cell differentiation protein Mcl-1 (Homo sapiens)",
    "IC50": "2.62 µM (active)"
  },
  {
    "compound": "CC(C)(C)C1=CC=C(C(C)(C)C)C(=O)C1=O",
    "test_target": "Induced myeloid leukemia cell differentiation protein Mcl-1 (Homo sapiens)",
    "IC50": "3.86 µM (active)"
  },
  {
    "compound": "c1cncc(C2Nc3cccc4cccc(c34)N2)c1",
    "test_target": "Induced myeloid leukemia cell differentiation protein Mcl-1 (Homo sapiens)",
    "IC50": "9.59 µM (active)"
  },
  {
    "compound": "CNc1sc(C(=O)c2ccc(F)cc2)c(N)c1-c1nc2ccccc2s1",
    "test_target": "Induced myeloid leukemia cell differentiation protein Mcl-1 (Homo sapiens)",
    "IC50": "2.45 µM (active)"
  },
  {
    "compound": "C/C=C\\C=C/C(=O)Nc1cccc(C2=NOC3(C2)C[C@@H](C(N)=O)N(C(=O)c2ccccc2)C3)c1 (some centres undefined)",
    "test_target": "Induced myeloid leukemia cell differentiation protein Mcl-1 (Homo sapiens)",
    "IC50": "6.9 µM (not active)"
  },
  {
    "compound": "COC(=O)c1c(NC(=O)Cc2cccs2)sc2c1CCCC2",
    "test_target": "Induced myeloid leukemia cell differentiation protein Mcl-1 (Homo sapiens)",
    "IC50": "3.35 µM (active)"
  },
  {
    "compound": "O=c1/c(=C\\c2cc([N+](=O)[O-])cc([N+](=O)[O-])c2O)sc2nc3ccccc3n12",
    "test_target": "Induced myeloid leukemia cell differentiation protein Mcl-1 (Homo sapiens)",
    "IC50": "1.54 µM (active)"
  }
]
